# Experimental Details: Cytotoxicity of flavonoid dimers, L929 mouse fibroblast
# Format: cell-based
# Condition Set: mouse, L929 fibroblast cells, IC50 of compound alone, 72 hrs, mouse fibroblast
Entries and their IC50 at 72 h values follow.
Readout Kind: IC50 at 72 h

• Cc1ccccc1CN(CCOCCOc1ccc(-c2cc(=O)c3ccccc3o2)cc1)CCOCCOc1ccc(-c2cc(=O)c3ccccc3o2)cc1 = > 100 µM
• O=c1cc(-c2ccc(OCCOCCN(CCOCCOc3ccc(-c4cc(=O)c5ccccc5o4)cc3)Cc3ccncc3Br)cc2)oc2ccccc12 [Compound 64d] = > 50 µM
• O=c1cc(-c2ccc(OCCOCCN(CCOCCOc3ccc(-c4cc(=O)c5ccccc5o4)cc3)c3ccccc3)cc2)oc2ccccc12 [Compound 64h] = > 100 µM
• O=c1cc(-c2ccc(OCCOCCN(CCOCCOc3ccc(-c4cc(=O)c5ccccc5o4)cc3)Cc3cc4c(cc3Cl)OCO4)cc2)oc2ccccc12 [Compound 42f] = > 100 µM
• O=c1cc(-c2ccc(OCCOCCN(CCOCCOc3ccc(-c4cc(=O)c5ccccc5o4)cc3)Cc3cccc4ccccc34)cc2)oc2ccccc12 = > 100 µM
• N#Cc1cc(CN(CCOCCOc2ccc(-c3cc(=O)c4ccccc4o3)cc2)CCOCCOc2ccc(-c3cc(=O)c4ccccc4o3)cc2)ccn1 [Compound 64c] = > 50 µM
• O=C(c1ccccc1)c1ccc(CN(CCOCCOc2ccc(-c3cc(=O)c4ccccc4o3)cc2)CCOCCOc2ccc(-c3cc(=O)c4ccccc4o3)cc2)cc1 = > 100 µM

* * *

# Experimental Details: Tumor cell line cytotoxicity of flavonoid dimers, LCC6
# Type: cell-based, human
# Condition Set: human, LCC6 cells, IC50 of compound alone
Readout Kind: IC50 at 72 h

* O=c1cc(-c2ccc(OCCOCCN(CCOCCOc3ccc(-c4cc(=O)c5ccccc5o4)cc3)Cc3cc(F)c(F)c(F)c3)cc2)oc2ccccc12 [Compound 39] | > 75 µM
* O=c1cc(-c2ccc(OCCOCCN(CCOCCOc3ccc(-c4cc(=O)c5ccccc5o4)cc3)Cc3ccccc3)cc2)oc2ccccc12 [Compound 18] | > 75 µM
* Nc1ccc(CN(CCOCCOc2ccc(-c3cc(=O)c4ccccc4o3)cc2)CCOCCOc2ccc(-c3cc(=O)c4ccccc4o3)cc2)cc1 [Compound 55] | > 50 µM

* * *

# Experimental Details: Cytotoxicity of flavonoid dimers, L929 mouse fibroblast
# Assay type: cell-based
# Condition Set: mouse, L929 fibroblast cells, IC50 of compound alone, 72 hrs, mouse fibroblast
# Experimental: (b) Tumor Cell Line Cytotoxicity. The tumor cytotoxicity assays of flavonoid dimers were performed against LCC6, LCC6MDR and L929 cell lines. […] In brief, LCC6, LCC6MDR and L929 cells were seeded into 96-well flat bottom microtiter plate at 1×10^4 cells per well in a final volume of 100 μL media, respectively. A graded dose of flavonoid dimers was added into wells. The plate was incubated at 37° C. for 72 hrs at the atmosphere 5% CO2 in the air. The % of survivors was determined.
Entries and their IC50 at 72 h values follow.
Readout Kind: IC50 at 72 h

• O=c1cc(-c2ccc(OCCOCCN(CCOCCOc3ccc(-c4cc(=O)c5ccccc5o4)cc3)Cc3ccccc3Cl)cc2)oc2ccccc12 [Compound 50] = > 100 µM
• CC(C)(C)OC(=O)Nc1ccc(CN(CCOCCOc2ccc(-c3cc(=O)c4ccccc4o3)cc2)CCOCCOc2ccc(-c3cc(=O)c4ccccc4o3)cc2)cc1 [Compound 54] = > 50 µM
• O=c1cc(-c2ccc(OCCOCCN(CCOCCOc3ccc(-c4cc(=O)c5ccccc5o4)cc3)Cc3c(F)cccc3F)cc2)oc2ccccc12 [Compound 41] = > 100 µM
• CC(C)(C)OC(=O)N(CCOCCOc1ccc(-c2cc(=O)c3ccccc3o2)cc1)CCOCCOc1ccc(-c2cc(=O)c3ccccc3o2)cc1 [Compound 16a] = < 11.1 µM
• O=c1cc(-c2ccc(OCCOCCN(CCOCCOc3ccc(-c4cc(=O)c5ccccc5o4)cc3)Cc3ccncn3)cc2)oc2ccccc12 [Compound 64e] = > 50 µM
• O=c1cc(-c2ccc(OCCOCCN(CCOCCOc3ccc(-c4cc(=O)c5ccccc5o4)cc3)Cc3cccc(Cl)c3)cc2)oc2ccccc12 [Compound 48] = > 100 µM

* * *

# Experimental Details: Tumor cell line cytotoxicity of flavonoid dimers, LCC6
# Format: cell-based, human
# Condition Set: human, LCC6 cells, IC50 of compound alone
Readout Kind: IC50 at 72 h

- COc1cc(-c2cc(=O)c3ccccc3o2)ccc1OCCOCCN(CCOCCOc1ccc(-c2cc(=O)c3ccccc3o2)cc1OC)C(=O)OC(C)(C)C [Compound 16b]: 8.3 µM
- O=c1cc(-c2ccc(OCCOCCN(CCCc3ccccc3)CCOCCOc3ccc(-c4cc(=O)c5ccccc5o4)cc3)cc2)oc2ccccc12 [Compound 26]: > 100 µM
- CC(=O)Oc1ccc(CN(CCOCCOc2ccc(-c3cc(=O)c4ccccc4o3)cc2)CCOCCOc2ccc(-c3cc(=O)c4ccccc4o3)cc2)cc1 [Compound 42c]: 6.6 µM
- O=C(c1ccccc1)N(CCOCCOc1ccc(-c2cc(=O)c3ccccc3o2)cc1)CCOCCOc1ccc(-c2cc(=O)c3ccccc3o2)cc1 [Compound 23d]: > 100 µM
- O=c1cc(-c2ccc(OCCOCCN(CCOCCOc3ccc(-c4cc(=O)c5ccccc5o4)cc3)Cc3nc4ccccc4[nH]3)cc2)oc2ccccc12 [Compound 60]: > 100 µM
- O=c1cc(-c2ccc(OCCOCCN(CCOCCOc3ccc(-c4cc(=O)c5ccccc5o4)cc3)Cc3cc4c(cc3Cl)OCO4)cc2)oc2ccccc12 [Compound 42f]: > 100 µM
- O=c1cc(-c2ccc(OCCOCCN(CCOCCOc3ccc(-c4cc(=O)c5ccccc5o4)cc3)Cc3c(F)cccc3F)cc2)oc2ccccc12 [Compound 41]: > 100 µM

* * *

# Experimental Details: Tumor cell line cytotoxicity of flavonoid dimers, LCC6
# Assay type: cell-based, human
# Condition Set: human, LCC6 cells, IC50 of compound alone
Readout Kind: IC50 at 72 h

- O=c1cc(-c2ccc(OCCOCCN(CCOCCOc3ccc(-c4cc(=O)c5ccccc5o4)cc3)Cc3ccc(Cl)cc3)cc2)oc2ccccc12: > 100 µM
- CC(C)(C)CC(=O)N(CCOCCOc1ccc(-c2cc(=O)c3ccccc3o2)cc1)CCOCCOc1ccc(-c2cc(=O)c3ccccc3o2)cc1: > 100 µM
- CC(C)(C)OC(=O)Nc1ccc(CN(CCOCCOc2ccc(-c3cc(=O)c4ccccc4o3)cc2)CCOCCOc2ccc(-c3cc(=O)c4ccccc4o3)cc2)cc1: > 50 µM

* * *

# Test System: Pgp (LCC6MDR cells) (Homo sapiens)
# Sequence (P08183 whole entry): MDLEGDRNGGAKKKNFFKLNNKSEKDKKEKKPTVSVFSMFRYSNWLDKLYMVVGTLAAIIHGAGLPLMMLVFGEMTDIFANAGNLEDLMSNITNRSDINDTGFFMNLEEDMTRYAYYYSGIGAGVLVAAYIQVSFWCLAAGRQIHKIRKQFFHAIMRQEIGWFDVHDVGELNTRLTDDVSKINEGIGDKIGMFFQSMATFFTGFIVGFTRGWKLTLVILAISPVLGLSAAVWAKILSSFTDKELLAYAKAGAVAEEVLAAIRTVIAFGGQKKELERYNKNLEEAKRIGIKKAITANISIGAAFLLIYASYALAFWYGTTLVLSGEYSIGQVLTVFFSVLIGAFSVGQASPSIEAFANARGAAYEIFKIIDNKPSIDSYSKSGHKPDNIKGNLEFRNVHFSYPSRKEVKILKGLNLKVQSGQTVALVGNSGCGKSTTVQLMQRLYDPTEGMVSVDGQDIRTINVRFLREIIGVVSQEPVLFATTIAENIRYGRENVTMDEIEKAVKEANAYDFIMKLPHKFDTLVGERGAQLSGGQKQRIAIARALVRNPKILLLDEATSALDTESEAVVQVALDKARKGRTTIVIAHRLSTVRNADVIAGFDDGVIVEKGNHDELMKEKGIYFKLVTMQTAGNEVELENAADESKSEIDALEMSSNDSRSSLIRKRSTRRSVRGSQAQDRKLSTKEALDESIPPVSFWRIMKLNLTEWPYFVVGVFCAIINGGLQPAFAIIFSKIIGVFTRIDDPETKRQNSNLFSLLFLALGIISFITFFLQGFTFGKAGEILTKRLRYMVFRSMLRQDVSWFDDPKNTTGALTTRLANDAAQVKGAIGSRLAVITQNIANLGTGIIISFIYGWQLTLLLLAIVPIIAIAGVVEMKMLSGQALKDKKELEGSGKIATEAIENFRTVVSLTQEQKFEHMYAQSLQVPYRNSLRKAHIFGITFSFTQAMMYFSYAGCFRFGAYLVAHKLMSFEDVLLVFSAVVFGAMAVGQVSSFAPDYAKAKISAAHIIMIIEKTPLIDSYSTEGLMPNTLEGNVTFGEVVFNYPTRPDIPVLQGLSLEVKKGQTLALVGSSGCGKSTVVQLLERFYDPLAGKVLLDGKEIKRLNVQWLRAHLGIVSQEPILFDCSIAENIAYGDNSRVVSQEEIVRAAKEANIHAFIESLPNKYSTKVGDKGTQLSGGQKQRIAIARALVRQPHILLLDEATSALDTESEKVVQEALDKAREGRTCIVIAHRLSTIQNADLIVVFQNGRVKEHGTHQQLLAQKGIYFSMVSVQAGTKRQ
# Experimental Details: Cell proliferation assay: Pgp-modulating activity, reversal of anticancer drug resistance in LCC6MDR cells
# Condition Set: IC50 of compounds for L929/EC50 of compounds for lowering paclitaxel drug resistance
Response field label: string, one of 1 (Therapeutic index strictly below 60) or -1.

* O=c1cc(-c2ccc(OCCOCCN(CCOCCOc3ccc(-c4cc(=O)c5ccccc5o4)cc3)Cc3ccc(Cl)cc3)cc2)oc2ccccc12 | -1
* CC(C)(C)OC(=O)Nc1ccc(CN(CCOCCOc2ccc(-c3cc(=O)c4ccccc4o3)cc2)CCOCCOc2ccc(-c3cc(=O)c4ccccc4o3)cc2)cc1 | -1
* CC(=O)Oc1ccc(CN(CCOCCOc2ccc(-c3cc(=O)c4ccccc4o3)cc2)CCOCCOc2ccc(-c3cc(=O)c4ccccc4o3)cc2)cc1 [Compound 42c] | 1
* O=c1cc(-c2ccc(OCCOCCN(CCOCCOc3ccc(-c4cc(=O)c5ccccc5o4)cc3)Cc3ccc([N+](=O)[O-])cc3)cc2)oc2ccccc12 | -1
* O=c1cc(-c2ccc(OCCOCCN(CCOCCOc3ccc(-c4cc(=O)c5ccccc5o4)cc3)Cc3ccc4ccccc4c3)cc2)oc2ccccc12 | 1
* CC(C)(C)OC(=O)N(CCOCCOc1ccc(-c2cc(=O)c3ccccc3o2)cc1)CCOCCOc1ccc(-c2cc(=O)c3ccccc3o2)cc1 [Compound 16a] | 1
* O=c1cc(-c2ccc(OCCOCCN(CCOCCOc3ccc(-c4cc(=O)c5ccccc5o4)cc3)Cc3ccccc3)cc2)oc2ccccc12 | -1

* * *

Entries and their melting point values follow.
Readout Kind: melting point

- O=c1cc(-c2ccc(OCCOCCN(CCOCCOc3ccc(-c4cc(=O)c5ccccc5o4)cc3)Cc3ccc(Cl)cc3)cc2)oc2ccccc12: 81 to 82 °C
- O=c1cc(-c2ccc(OCCOCCN(CCOCCOc3ccc(-c4cc(=O)c5ccccc5o4)cc3)Cc3ccc(F)c(F)c3)cc2)oc2ccccc12: 96 to 98 °C
- O=c1cc(-c2ccc(OCCOCCN(CCOCCOc3ccc(-c4cc(=O)c5ccccc5o4)cc3)Cc3ccc(F)cc3)cc2)oc2ccccc12: 119 to 122 °C
- O=c1cc(-c2ccc(OCCOCCN(CCOCCOc3ccc(-c4cc(=O)c5ccccc5o4)cc3)Cc3ccccc3F)cc2)oc2ccccc12: 82 to 84 °C
- O=c1cc(-c2ccc(OCCOCCN(CCOCCOc3ccc(-c4cc(=O)c5ccccc5o4)cc3)Cc3cccc4ccccc34)cc2)oc2ccccc12: 96 to 97 °C
- O=c1cc(-c2ccc(OCCOCCN(CCOCCOc3ccc(-c4cc(=O)c5ccccc5o4)cc3)Cc3ccc(-c4ccccc4)cc3)cc2)oc2ccccc12: 106 to 107 °C

# credit: patent US8980848B2
